Entries annotated with measured Activity
- Tested on: Pseudomonas aeruginosa
- test-summary: Antibacterial activity against Pseudomonas aeruginosa ATCC 9027 at 50 to 100 ug/ml by cup-plate method
- Format: functional
recorded-metric: Activity (%)

>>> test_value("O=c1c2cc(Br)ccc2nc(Cc2ccccc2Nc2c(Cl)cccc2Cl)n1-c1ccc(/N=C/c2ccc(Cl)cc2)cc1")
46.93
>>> test_value("O=C1C(Cl)C(c2ccccc2O)N1c1ccc(-n2c(Cc3ccccc3Nc3c(Cl)cccc3Cl)nc3ccc(Br)cc3c2=O)cc1 (centres undefined)")
50
>>> test_value("O=c1c2cc(Br)ccc2nc(Cc2ccccc2Nc2c(Cl)cccc2Cl)n1-c1ccc(/N=C/c2cccc([N+](=O)[O-])c2)cc1")
33.92
>>> test_value("COc1ccc(C2C(Cl)C(=O)N2c2ccc(-n3c(Cc4ccccc4Nc4c(Cl)cccc4Cl)nc4ccc(Br)cc4c3=O)cc2)cc1 (centres undefined)")
65.76
